Numbers sourced from patent US11236052B2.

# ASSAY EXPLANATION: Pharmacokinetic studies in the mouse
# Assay type: in vivo
# ASSAY CONDITIONS: plasma, po, 5 mg/kg, 5 mg/kg oral, read-out: AUC0-∞ (overall exposure following oral doses)
MEASURE NAME: AUC(0-inf) (ng·h/mL)

O=C(NO)c1ccc(Nc2nc3ccccc3n2C2CCCCC2)cc1 [ID #2] : 1280

1 = O=C(NO)c1ccc(Nc2nc3ccccc3n2C2CCCCCC2)cc1 [ID #3]
2 = O=C(NO)c1ccc(Nc2nc3ccccc3n2CC2CCCCC2)cc1 [ID #1]
Input line: // returns 1 or 2 , whichever has the lower AUC(0-inf) Kindly give the label for the entry you pick.
Output line: 1
(1: 1650 ng·h/mL, 2: 3970 ng·h/mL)

###

# Test system: ES2
# ASSAY EXPLANATION: CellTiter-Glo cell viability assay, ES2
# Format: cell-based
# ASSAY CONDITIONS: Homo sapiens, ES-2; Ovarian, ES2, 72 hours
MEASURE NAME: pIC50
Keep in mind that pIC50 stands for -log10 of concentration in molar terms.

O=C(NO)c1ccc(Nc2nc3ccccc3n2C2CCCCCC2)cc1 : 4.88

Let us move to another entry and its pIC50.
Input line: Query (molecule): O=C(NO)c1ccc(Nc2nc3ccccc3n2CC2CCCCC2)cc1 ; field requested: pIC50
Output line: 5.40

###

# ASSAY EXPLANATION: Permeability (PAMPA)
# Assay type: in vitro ADME
# ASSAY CONDITIONS: read-out: Permeabiltiy (PAMPA)
MEASURE NAME: Papp (×10⁻⁶ cm/s)

O=C(NO)c1ccc(Nc2nc3ccccc3n2C2CCCCC2)cc1 : 1.65
O=C(NO)c1ccc(Nc2nc3ccccc3n2C2CCCCCC2)cc1 : 2.2
O=C(NO)c1ccc(Nc2nc3ccccc3n2CC2CCCCC2)cc1 : 1.68

###

# MEASUREMENT TARGET: HDAC10 (Homo sapiens (Human), UniProt Q969S8)
# Sequence (Q969S8 whole entry): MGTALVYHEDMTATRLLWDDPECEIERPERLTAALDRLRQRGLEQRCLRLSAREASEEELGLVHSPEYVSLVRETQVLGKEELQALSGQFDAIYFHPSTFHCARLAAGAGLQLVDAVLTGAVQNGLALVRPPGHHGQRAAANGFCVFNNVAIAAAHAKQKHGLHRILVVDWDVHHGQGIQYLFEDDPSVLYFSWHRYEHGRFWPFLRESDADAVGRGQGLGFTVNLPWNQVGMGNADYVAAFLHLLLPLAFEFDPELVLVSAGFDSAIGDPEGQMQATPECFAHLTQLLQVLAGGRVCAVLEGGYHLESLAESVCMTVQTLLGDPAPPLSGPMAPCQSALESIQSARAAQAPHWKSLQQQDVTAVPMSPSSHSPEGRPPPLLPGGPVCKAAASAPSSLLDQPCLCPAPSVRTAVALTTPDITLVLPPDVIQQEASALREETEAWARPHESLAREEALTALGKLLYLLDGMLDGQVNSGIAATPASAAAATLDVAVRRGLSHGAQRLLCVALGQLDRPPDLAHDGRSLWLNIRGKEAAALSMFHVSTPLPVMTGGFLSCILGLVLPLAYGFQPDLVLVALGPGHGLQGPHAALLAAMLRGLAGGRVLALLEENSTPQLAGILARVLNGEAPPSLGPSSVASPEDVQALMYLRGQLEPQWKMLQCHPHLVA
# ASSAY EXPLANATION: In vitro HDAC enzyme inhibition, mobility shift
# Assay type: biochemical
# ASSAY CONDITIONS: purified enzyme
MEASURE NAME: IC50 (µM)

O=C(NO)c1ccc(Nc2nc3ccccc3n2C2CCCCCC2)cc1 : 3.12

A = O=C(NO)c1ccc(Nc2nc3ccccc3n2CC2CCCCC2)cc1
B = O=C(NO)c1ccc(Nc2nc3ccccc3n2C2CCCCC2)cc1
Input line: // which entry has the larger IC50 value, A or B ? Kindly give the label for the entry you pick.
Output line: B
(B: 3.56 µM, A: 0.137 µM)

###

# ASSAY EXPLANATION: Pharmacokinetic studies in the mouse
# Assay type: in vivo
# ASSAY CONDITIONS: plasma, iv, 1 mg/kg, 1.0 mg/kg IV, read-out: Cmax
MEASURE NAME: Cmax (ng/mL)

O=C(NO)c1ccc(Nc2nc3ccccc3n2CC2CCCCC2)cc1 [ID #1] : 1290

I = O=C(NO)c1ccc(Nc2nc3ccccc3n2C2CCCCCC2)cc1 [ID #3]
II = O=C(NO)c1ccc(Nc2nc3ccccc3n2C2CCCCC2)cc1 [ID #2]
Input line: // which entry has the larger Cmax value, I or II ? Kindly give the label for the entry you pick.
Output line: I

###

# MEASUREMENT TARGET: HDAC6 (Homo sapiens (Human))
# Sequence (Q9UBN7 whole entry): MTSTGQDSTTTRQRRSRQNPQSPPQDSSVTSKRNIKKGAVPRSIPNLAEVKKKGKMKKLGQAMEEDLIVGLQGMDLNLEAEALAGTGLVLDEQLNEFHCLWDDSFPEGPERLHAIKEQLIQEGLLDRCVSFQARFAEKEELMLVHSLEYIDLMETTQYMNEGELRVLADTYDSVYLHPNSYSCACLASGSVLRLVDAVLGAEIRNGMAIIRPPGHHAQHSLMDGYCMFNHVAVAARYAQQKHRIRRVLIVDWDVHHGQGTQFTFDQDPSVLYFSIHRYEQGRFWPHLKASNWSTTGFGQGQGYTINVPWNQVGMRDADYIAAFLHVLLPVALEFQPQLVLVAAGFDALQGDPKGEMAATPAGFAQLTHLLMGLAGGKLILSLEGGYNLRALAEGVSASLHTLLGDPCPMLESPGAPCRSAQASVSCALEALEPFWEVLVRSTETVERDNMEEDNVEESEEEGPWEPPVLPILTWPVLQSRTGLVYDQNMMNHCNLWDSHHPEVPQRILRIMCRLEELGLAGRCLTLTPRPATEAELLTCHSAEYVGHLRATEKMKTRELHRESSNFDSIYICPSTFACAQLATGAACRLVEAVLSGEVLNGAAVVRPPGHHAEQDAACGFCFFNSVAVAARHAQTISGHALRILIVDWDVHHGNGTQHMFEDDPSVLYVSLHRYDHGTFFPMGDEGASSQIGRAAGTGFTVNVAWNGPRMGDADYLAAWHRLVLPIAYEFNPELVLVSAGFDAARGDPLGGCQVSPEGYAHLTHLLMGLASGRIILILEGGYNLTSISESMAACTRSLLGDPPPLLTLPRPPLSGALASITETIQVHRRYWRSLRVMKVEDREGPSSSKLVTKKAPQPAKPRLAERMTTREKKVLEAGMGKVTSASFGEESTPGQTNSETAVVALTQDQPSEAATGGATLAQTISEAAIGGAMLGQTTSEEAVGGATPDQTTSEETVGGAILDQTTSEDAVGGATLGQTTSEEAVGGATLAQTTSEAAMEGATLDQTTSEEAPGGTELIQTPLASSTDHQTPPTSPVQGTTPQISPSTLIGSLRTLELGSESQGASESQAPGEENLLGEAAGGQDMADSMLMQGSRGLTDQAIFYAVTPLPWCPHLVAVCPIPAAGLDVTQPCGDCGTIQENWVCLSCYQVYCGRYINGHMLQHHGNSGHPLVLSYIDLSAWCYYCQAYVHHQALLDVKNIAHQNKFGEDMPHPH
# ASSAY EXPLANATION: In vitro HDAC enzyme inhibition, mobility shift
# Assay type: biochemical
# ASSAY CONDITIONS: purified enzyme
MEASURE NAME: IC50 (µM)

O=C(NO)c1ccc(Nc2nc3ccccc3n2C2CCCCCC2)cc1 : 0.0145

a = O=C(NO)c1ccc(Nc2nc3ccccc3n2C2CCCCC2)cc1
b = O=C(NO)c1ccc(Nc2nc3ccccc3n2CC2CCCCC2)cc1
Input line: // returns a or b , whichever has the lower IC50 Kindly give the label for the entry you pick.
Output line: b
(b: 0.0064 µM, a: 0.015 µM)

###

# ASSAY EXPLANATION: Pharmacokinetic studies in the mouse
# Format: in vivo
# ASSAY CONDITIONS: plasma, 1.0 mg/kg IV
MEASURE NAME: Tmax (min)

O=C(NO)c1ccc(Nc2nc3ccccc3n2CC2CCCCC2)cc1 : 4.8
O=C(NO)c1ccc(Nc2nc3ccccc3n2C2CCCCC2)cc1 : 4.8
O=C(NO)c1ccc(Nc2nc3ccccc3n2C2CCCCCC2)cc1 : 4.8
